Data origin, for the record: patent US4443448A

Experiment: in vivo
Settings: iv
LD50 strictly less than 90 mg/kg = true. Otherwise false.

Consider the worked cases shown below.
MOLECULE	LABEL VALUE
CN1CCN(C2CC(c3ccc(F)cc3)c3ccc(C(F)(F)F)cc32)CC1 (centres unmarked)	false
CN(C)CCCN1c2ccccc2Sc2ccc(Cl)cc21 [chlorpromazine, reference compound]	true
CC(C)N1CCN(C2CC(c3ccc(F)cc3)c3ccc(F)cc32)CC1 (centres unmarked)	false
Cc1ccc2c(c1)C(N1CCN(C(C)C)CC1)CC2c1ccc(F)cc1 (centres unmarked)	true

# ---- query molecule ----
Problem: Strictly below 90 mg/kg: is that where LD50 of Fc1ccc(C2CC(N3CCN(CC4CCCCC4)CC3)c3cc(F)ccc32)cc1 (centres unmarked) sits?
Solution: false

* * *

System: methylphenidate
Assay: Methylphenidate antagonism in mice
Type: in vivo
Settings: Mus musculus, ip, 2 h, read-out: MePh antag. ED50 2 hr i.p., mice, test substance i.p., 2 hr before methylphenidate 60 mg/kg s.c.
For each entry below, report its ED50 value.
Numbers only, in mg/kg.

Answered cases to consult:
MOLECULE	ED50 (mg/kg)
OCCN1CCN([C@@H]2C[C@@H](c3ccccc3)c3ccc(C(F)(F)F)cc32)CC1 (relative stereo)	2.2
CS(=O)(=O)c1ccc2c(c1)C(N1CCN(CCO)CC1)CC2c1ccc(F)cc1 (stereo not shown)	10

Please examine the following record next.
Problem: Entry OCCCN1CCN([C@@H]2C[C@@H](c3ccc(F)cc3)c3ccc(F)cc32)CC1 (relative stereo) : reported ED50 = ?
Solution: 1.6

* * *

Test: in vivo
Parameters: species or system rats
Settings: rat, in vivo, po, rats, p.o., strongest effect within first 6 hours; read-out: Catalep. (catalepsy wire mesh, rat, max, ED50)
Threshold check on ED50: strictly below 7 mg/kg is yes (1); on or above 7 mg/kg is no (0).

MOLECULE	LABEL VALUE
O=C1OCCN1CCN1CCN(C2CC(c3ccc(F)cc3)c3ccc(F)cc32)CC1 (centres unmarked)	no (0)

Problem: Criterion: ED50 strictly below 7 mg/kg. Is it met by OCCN1CCN([C@@H]2C[C@H](c3ccc(F)cc3)c3ccc(Cl)cc32)CC1 (relative stereo) ?
Solution: no (0)

Problem: Decide: ED50 of Cc1ccc2c(c1)[C@H](N1CCN(C)CC1)C[C@H]2c1ccc(F)cc1 (relative stereo) strictly below 7 mg/kg?
Solution: yes (1)

* * *

System: methylphenidate
Experiment: Methylphenidate antagonism in mice
Type: in vivo
Details: Mus musculus, ip, 2 h, read-out: MePh antag. ED50 2 hr i.p., mice, test substance i.p., 2 hr before methylphenidate 60 mg/kg s.c.
Provide the recorded ED50 for the entries that follow.
One number for each entry, in mg/kg.

I would be grateful if you could provide ED50 for each of the following entries.
1. CC(O)CN1CCN(C2CC(c3ccc(F)cc3)c3ccc(F)cc32)CC1 (stereo not shown)
2. O[C@H]1CC[C@H](CN2CCN(C3CC(c4ccc(F)cc4)c4ccc(F)cc43)CC2)CC1 (relative stereo)
3. OCC(CO)N1CCN(C2CC(c3ccc(F)cc3)c3ccc(C(F)(F)F)cc32)CC1 (stereo not shown)
4. OCCN1CCN([C@@H]2C[C@@H](c3ccc(F)cc3)c3cc(F)ccc32)CC1 (relative stereo)

Solution:
1.2
4.3
0.2
6
